# assay.info: Solubility test, equilibrium method, UV-visible spectrophotometry
# Format: physicochemical
# condition.details: water, thermodynamic from solid
quantity: solubility

Given the compound CCc1c2c(nc3ccc(OC(=O)OCCOCCOCc4cn([C@H]5O[C@@H](CO)[C@H](O)[C@@H](O)[C@@H]5O)nn4)cc13)-c1cc3c(c(=O)n1C2)COC(=O)[C@]3(O)CC , what is its reported solubility? 109 µg/mL

Given the compound CCc1c2c(nc3ccc(OC(=O)OCCOCCOCCOCCOCc4cn([C@H]5O[C@@H](CO)[C@H](O)[C@@H](O)[C@@H]5O)nn4)cc13)-c1cc3c(c(=O)n1C2)COC(=O)[C@]3(O)CC , what is its reported solubility? 162 µg/mL

Given the compound CCc1c2c(nc3ccc(OC(=O)OCCOCCOCCOCc4cn(CCO[C@H]5O[C@@H](CO)[C@H](O)[C@@H](O)[C@@H]5O)nn4)cc13)-c1cc3c(c(=O)n1C2)COC(=O)[C@]3(O)CC , what is its reported solubility? 2550 µg/mL
